# Test system: SNB-75 CNS
# assaySummary: NCI-60 one-dose screen, 48 h (100 = growth as untreated, 0 = no growth, -100 = all killed)
# cond: 10 µM unless noted
This is part of a sample that, as a whole, favours compounds with a hit. Of some 83,000 tested, about 20% had one in any assay.
outcomeMeasure: growth (%)
The figure you give is taken to be in %; do not add the unit.

# count of solved cases: 4
compound	growth / %
CC(C)(C)c1cc(-n2c(-c3ccc(Cl)cc3)nc3cc(C(=O)Nc4ccc(Cl)cc4)ccc32)n[nH]1	60.7
O=C1/C(=C\c2ccco2)SC(=S)N1CCc1ccc(O)cc1	78.5
C=C(C)[C@@H]1CC[C@]2(C(=O)N3CCN(C)CC3)CC[C@]3(C)[C@H](CC[C@@H]4[C@@]5(C)C/C(=C/c6ccc(C(F)(F)F)cc6)C(=O)C(C)(C)[C@@H]5CC[C@]43C)[C@@H]12	80.7
COc1ccc2c(c1)c(-c1nc(-c3cn(C)c4ncccc34)cs1)cn2CCN	78.2

Kindly consider the entry below.
// field: growth; key: Clc1ccccc1-c1nc(Nc2nc3ccccc3s2)nc(C(Cl)(Cl)Cl)n1 ; value = 58.2

Where do the numbers come from? From PubChem BioAssay (NCI).
